Target System: DRB1*0401 (DR4w4) (Homo sapiens, UniProt P01903+P01911, A100K/A169T/F76Y/I96L/K127E/L162R/M171V/N62H/P40V/Q125Y/R42H/S133A/S149N/S66Y/V115G/V209L/W38E)
Construct: endogenous in cells; host or cells: Preiss
Sequence (P01903 26-254 partner, other chains not shown): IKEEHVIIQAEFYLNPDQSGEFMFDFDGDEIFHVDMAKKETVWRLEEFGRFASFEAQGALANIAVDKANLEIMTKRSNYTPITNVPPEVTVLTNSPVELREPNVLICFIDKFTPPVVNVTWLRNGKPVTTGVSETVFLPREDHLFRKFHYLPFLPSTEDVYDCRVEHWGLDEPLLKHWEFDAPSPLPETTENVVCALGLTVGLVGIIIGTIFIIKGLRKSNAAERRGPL
Experiment: HLA class II peptide binding assay
Experimental Conditions: Table XIXb; DR4w4
Rule: DR4w4 binding data of 0.002 or more gives label 1; anything lower gives label 0.

Query: Please tell me: is the sequence LETVNISDV at or over 0.002 in terms of DR4w4 binding data?
Result: label 0

Query: // inclusive: DR4w4 binding data at least 0.002? input: VSTVLLGGV
Result: label 0

Query: Can LHEGCTSEL be said to have DR4w4 binding data at or above 0.002?
Result: label 0

Query: Check this sequence for DR4w4 binding data at or above 0.002: YDNAGINLY
Result: label 0

Query: Please tell me: is the sequence FYFILVNLL at or over 0.002 in terms of DR4w4 binding data?
Result: label 1

Query: Can LEEKAAKET be said to have DR4w4 binding data at or above 0.002?
Result: label 0

Query: Answer whether DR4w4 binding data of LAMKLIQQL is greater than or equal to 0.002.
Result: label 1

Query: In plain terms: is recorded DR4w4 binding data at least 0.002 for VNHAVPLAM ?
Result: label 1

Query: Could you please find out whether VNDFQISKY has DR4w4 binding data that meets 0.002 or exceeds it?
Result: label 0

Query: Record VDLYLLMDC ; criterion: DR4w4 binding data no lower than 0.002. Met?
Result: label 1

Query: Entry YGRLEIPAI : is its DR4w4 binding data no less than 0.002?
Result: label 0

Query: Is reported DR4w4 binding data greater than or equal to 0.002 here: LGNVSTVLL
Result: label 1

Query: Has VVPGAATPY a recorded DR4w4 binding data greater than or equal to 0.002?
Result: label 1

Query: Is it the case that WDEWSPCSV has DR4w4 binding data reaching or exceeding 0.002?
Result: label 0

Query: Please indicate if the recorded DR4w4 binding data for LVTVFLIFF meets or exceeds 0.002.
Result: label 1

Query: # bool: DR4w4 binding data of FMKAVCVEV >= 0.002
Result: label 0

Query: Item LTDGIPDSI with DR4w4 binding data of 0.002 or above?
Result: label 1

Query: Decide: DR4w4 binding data of WVNHAVPLA >= 0.002?
Result: label 1

Query: // inclusive: DR4w4 binding data at least 0.002? input: LTMSNVKNV
Result: label 1

Query: For this sequence, is measured DR4w4 binding data 0.002 or higher? VEKTASCGV
Result: label 1

Query: Evaluate YLLMDCSGS : DR4w4 binding data at minimum 0.002?
Result: label 1
